Provenance of the data: patent US11999676B2

PROTOCOL TEXT: Microsomal stability assay, human liver microsomes
EXPERIMENTAL PARAMETERS: both, human, pooled liver microsomes, pH 7.4, Microsomal stability assays: Clearance
READOUT: CLint scaled at 0.08 µM

Prompt line: // Input: CC(Cc1ccc(F)cc1)NCCCc1ccc(I)cc1 (stereo not shown) . Output its CLint scaled at 0.08 µM only.
Response line: < 5.2 mL/min/kg

Prompt line: // Input: CC(=O)Nc1ccc(CCCNC(C)Cc2ccc(F)cc2)cc1 (stereo not shown) . Output its CLint scaled at 0.08 µM only.
Response line: < 10 mL/min/kg

Prompt line: // Input: COc1ccc(CCC(C)NC(C)Cc2ccccc2)cc1 (stereo not shown) . Output its CLint scaled at 0.08 µM only.
Response line: > 400 mL/min/kg

Prompt line: // Input: CC(Cc1ccccc1)NCCCc1ccc(C(F)(F)F)cc1 (stereo not shown) . Output its CLint scaled at 0.08 µM only.
Response line: < 5.2 mL/min/kg

Prompt line: // Input: CC(Cc1ccccc1)NCCCc1ccc(-c2cccnc2)cc1 (stereo not shown) . Output its CLint scaled at 0.08 µM only.
Response line: > 400 mL/min/kg

Prompt line: // Input: CC(Cc1ccc(C(F)(F)F)cc1)NCCCc1ccncc1 (stereo not shown) . Output its CLint scaled at 0.08 µM only.
Response line: < 5.2 mL/min/kg

Prompt line: // Input: CC(Cc1ccc([N+](=O)[O-])cc1)NCCCc1ccc(Br)cc1 (stereo not shown) . Output its CLint scaled at 0.08 µM only.
Response line: < 5.2 mL/min/kg

Prompt line: // Input: CC(Cc1ccc(F)cc1)NCCCc1ccncc1 (stereo not shown) . Output its CLint scaled at 0.08 µM only.
Response line: < 5.2 mL/min/kg

Prompt line: // Input: FCC(Cc1ccccc1)NCCCc1ccc(F)cc1 (stereo not shown) . Output its CLint scaled at 0.08 µM only.
Response line: 33.9 mL/min/kg

Prompt line: // Input: CC(Cc1ccc(F)cc1)NCCCc1ccc(Br)cc1 (stereo not shown) . Output its CLint scaled at 0.08 µM only.
Response line: < 5.2 mL/min/kg

Prompt line: // Input: CC(Cc1ccc(F)c(F)c1)NCCCc1ccc(N)cc1 (stereo not shown) . Output its CLint scaled at 0.08 µM only.
Response line: 9.6 mL/min/kg

Prompt line: // Input: CC(Cc1ccc(F)cc1)NCCCn1ccnc1 (stereo not shown) . Output its CLint scaled at 0.08 µM only.
Response line: < 5.2 mL/min/kg

Prompt line: // Input: CC(Cc1ccc(Br)cc1)NCCCc1ccc(Cl)cc1 (stereo not shown) . Output its CLint scaled at 0.08 µM only.
Response line: < 5.2 mL/min/kg

Prompt line: // Input: CC(C)C(Cc1ccc(F)cc1)NCCCc1ccc(Br)cc1 (stereo not shown) . Output its CLint scaled at 0.08 µM only.
Response line: 14.4 mL/min/kg

Prompt line: // Input: CC(Cc1ccc(F)cc1)NCCCc1ccc(F)cc1 (stereo not shown) . Output its CLint scaled at 0.08 µM only.
Response line: 5.4 mL/min/kg

Prompt line: // Input: CC(Cc1ccncc1)NCCCc1ccc(O)cc1 (stereo not shown) . Output its CLint scaled at 0.08 µM only.
Response line: < 5.2 mL/min/kg

Prompt line: // Input: CC(Cc1ccccc1)NCCCc1ccc(-c2cncnc2)cc1 (stereo not shown) . Output its CLint scaled at 0.08 µM only.
Response line: 155 mL/min/kg

Prompt line: // Input: CC(Cc1ccncc1)NCCCc1ccc(F)cc1 (stereo not shown) . Output its CLint scaled at 0.08 µM only.
Response line: 4.3 mL/min/kg

Prompt line: // Input: CC(Cc1ccc(Br)cc1)NCCCc1ccc(F)cc1 (stereo not shown) . Output its CLint scaled at 0.08 µM only.
Response line: < 5.2 mL/min/kg

Prompt line: // Input: CC(Cc1ccc(F)cc1)NCCCc1ccc(S(C)(=O)=O)cc1 (stereo not shown) . Output its CLint scaled at 0.08 µM only.
Response line: < 5.2 mL/min/kg

Prompt line: // Input: CC(Cc1ccc(F)cc1)NCCCc1ccc2[nH]ccc2c1 (stereo not shown) . Output its CLint scaled at 0.08 µM only.
Response line: 106 mL/min/kg

Prompt line: // Input: CC(Cc1ccc([N+](=O)[O-])cc1)NCCCc1ccccc1 (stereo not shown) . Output its CLint scaled at 0.08 µM only.
Response line: < 5.2 mL/min/kg

Prompt line: // Input: FCC(Cc1ccc(Br)cc1)NCCCc1ccc(F)cc1 (stereo not shown) . Output its CLint scaled at 0.08 µM only.
Response line: 18.1 mL/min/kg

Prompt line: // Input: CCOC(=O)c1ccc(CCCNC(C)Cc2ccc(F)cc2)cc1 (stereo not shown) . Output its CLint scaled at 0.08 µM only.
Response line: 216 mL/min/kg

Prompt line: // Input: CCC(Cc1ccccc1)NCCCc1ccc(O)cc1 (stereo not shown) . Output its CLint scaled at 0.08 µM only.
Response line: > 400 mL/min/kg
